Tested on: saphenous artery rings
assayRemarks: Vasorelaxant effect in vitro (phenylephrine-contracted artery rings)
Type: cell-based
testSettings: Oryctolagus cuniculus, rabbit saphenous artery rings, contraction induced by phenylephrine
# Lookup of reported IC50 keyed by entry
A bare number is not enough; add the unit after it.

Example molecules with recorded IC50:
O=C(O)CCCCC(/C=C/c1cc(F)ccc1OCc1ccccc1Cl)Cc1cc(F)c(O)c(F)c1 (single isomer, unassigned) [Example 8] = 647 nM
O=C(O)CCCCN(CCc1cc(F)ccc1OCc1ccc(-c2ccc(C(F)(F)F)cc2)cc1)Cc1cc(F)c(O)c(F)c1 [Example 18] = 43 nM

The record that follows has no IC50 shown yet.
Consider the molecule shown here: O=C(O)CCCCC(/C=C\c1cc(F)ccc1OCc1ccc(-c2ccc(C(F)(F)F)cc2)cc1)Cc1cc(F)c(O)c(F)c1 (single isomer, unassigned) [Example 6] What is its recorded IC50?
2700 nM
